Entries annotated with measured Duration of Action
Experiment: Mouse Hot Plate Assay (analgesia)
Type: in vivo, mice
Settings: duration of the analgesic effect, intrathecal
Where a SMILES comes first, the peptide text is derived from it. [ ]: non-standard residue; d: D form. Nle = CCCC[C@H](N)C(=O)O
Reported Property: Duration of Action

compound="CCCC[C@H](NC(=O)[C@H](CC(C)C)NC(=O)[C@@H](Cc1c[nH]c2ccccc12)NC(=O)[C@@H](NC(=O)[C@@H](Cc1c[nH]c2ccccc12)NC(=O)[C@H](Cc1ccccc1)NC(=O)[C@@H](CC(=O)O)NC(=O)[C@H](Cc1c[nH]cn1)NC(=O)[C@H]1CCCN1C(=O)[C@@H](N)CC(=O)O)C(C)C)C(N)=O [Example 4] (H-D[dP]H[dD]F[dW]V[dW]L[Nle]-NH2)" result="≤ 60 min"
compound="CCCC[C@H](NC(=O)[C@H](CC(C)C)NC(=O)[C@@H](Cc1c[nH]c2ccccc12)NC(=O)[C@@H](NC(=O)[C@@H](Cc1c[nH]c2ccccc12)NC(=O)[C@H](Cc1ccccc1)NC(=O)[C@H](CC(=O)O)NC(=O)[C@H](Cc1c[nH]cn1)NC(=O)[C@H]1CCCN1C(=O)[C@H](N)CC(=O)O)C(C)C)C(N)=O [Example 2] (H-[dD][dP]HDF[dW]V[dW]L[Nle]-NH2)" result="120 min"
compound="CCCC[C@H](NC(=O)[C@H](CC(C)C)NC(=O)[C@@H](Cc1c[nH]c2ccccc12)NC(=O)[C@@H](NC(=O)[C@@H](Cc1c[nH]c2ccccc12)NC(=O)[C@H](Cc1ccccc1)NC(=O)[C@@H](CC(=O)O)NC(=O)[C@H](Cc1c[nH]cn1)NC(=O)[C@H]1CCCN1C(=O)[C@H](N)CC(=O)O)C(C)C)C(N)=O [Example 3] (H-[dD][dP]H[dD]F[dW]V[dW]L[Nle]-NH2)" result="≤ 90 min"
compound="CCCC[C@H](NC(=O)[C@H](CC(C)C)NC(=O)[C@@H](Cc1c[nH]c2ccccc12)NC(=O)[C@@H](NC(=O)[C@@H](Cc1c[nH]c2ccccc12)NC(=O)[C@H](Cc1ccccc1)NC(=O)[C@H](CC(=O)O)NC(=O)[C@H](Cc1c[nH]cn1)NC(=O)[C@H]1CCCN1C(=O)[C@@H](N)CC(=O)O)C(C)C)C(N)=O [Example 1] (H-D[dP]HDF[dW]V[dW]L[Nle]-NH2)" result="≥ 90 min"
